This section presents molecules with their documented DC50 values.
molecular target: UniProt:P29597; test: TYK2 degradation MSD assay in human PBMC cells; type: cell-based; design: endogenous in cells; host or cells: human PBMC; conditions: 4 to 24 hours incubation, read-out: TYK2 MSD DC50 rating in human PBMC

Molecule | Target or system | Measured
CNc1cc(C2CCN(C(=O)CCCCCCCc3ccc4c(c3)n(C)c(=O)n4C3CCC(=O)NC3=O)CC2)nn2c(C(=O)N[C@@H]3C[C@@H]3F)cnc12 (stereo partly shown) [Example K302] | UniProt:P29597 | > 100 nM
CNc1cc(Nc2cccc(-c3ccc(CN4CC5(C4)CN(c4ccc(-c6ccc7c(c6)n(C)c(=O)n7C6CCC(=O)NC6=O)cc4)C5)cn3)c2)nn2c(C(=O)N[C@@H]3C[C@@H]3F)cnc12 (stereo partly shown) [Example K522] | UniProt:P29597 | > 100 nM
CNc1cc(N2CCc3c(N4CCC(CN5CCN(c6ccc(-c7ccc8c(c7)n(C)c(=O)n8C7CCC(=O)NC7=O)cc6)CC5)CC4)cccc32)nn2c(C(=O)N[C@@H]3C[C@@H]3F)cnc12 (stereo partly shown) [Example K551] | UniProt:P29597 | > 100 nM
CNC(=O)c1cnc(Nc2cc(C(=O)NCCCCCCCCc3ccc4c(c3)n(C)c(=O)n4C3CCC(=O)NC3=O)ccn2)cc1Nc1cccc(-c2ncc(F)cn2)c1OC (stereo not shown) [Example K129] | UniProt:P29597 | < 1 nM
CNc1cc(Nc2ccccc2C(=O)NCCCCCCCCc2ccc3c(c2)n(C)c(=O)n3C2CCC(=O)NC2=O)nn2c(C(=O)N[C@@H]3C[C@@H]3F)cnc12 (stereo partly shown) [Example K256] | UniProt:P29597 | < 1 nM
CNc1cc(Oc2ccn(C3CCN(CC4CCN(c5ccc(-c6ccc7c(c6)n(C)c(=O)n7C6CCC(=O)NC6=O)cc5)CC4)CC3)n2)nn2c(C(=O)N[C@@H]3C[C@@H]3F)cnc12 (stereo partly shown) [Example K549] | UniProt:P29597 | > 100 nM
CNc1cc(Nc2cccc(-c3ccc(CN4CCN(C5CCC(c6ccc(-c7ccc8c(c7)n(C)c(=O)n8C7CCC(=O)NC7=O)cc6)CC5)CC4)cn3)c2OC)nn2c(C(=O)N[C@@H]3C[C@@H]3F)cnc12 (stereo partly shown) [Example K567] | UniProt:P29597 | > 100 nM
CNc1cc(Nc2cccc(CN3CCN(CCc4ccc5c(c4)n(C)c(=O)n5C4CCC(=O)NC4=O)CC3)c2)nn2c(C(=O)NC3CC3)cnc12 (stereo not shown) [Example K613] | UniProt:P29597 | > 100 nM

Task item: For CNC(=O)c1cnc(Nc2ccc(CN(C)CCCOC3CCN(c4ccc5c(c4)n(C)c(=O)n5C4CCC(=O)NC4=O)CC3)cn2)cc1Nc1cccc(-c2ncc(F)cn2)c1OC (stereo not shown) [Example K157] , what is its reported DC50?
Reply: > 100 nM

Task item: For CNC(=O)c1cnc(Nc2cc(C(=O)NCCCCCCc3ccc4c(c3)n(C)c(=O)n4C3CCC(=O)NC3=O)ccn2)cc1Nc1cccc(-c2ncc(F)cn2)c1OC (stereo not shown) [Example K127] , what is its reported DC50?
Reply: < 1 nM

Task item: For CNc1cc(-c2ccc(-c3ccc(CN4CCC(N5CC(N6CCN(c7ccc8c(c7)n(C)c(=O)n8C7CCC(=O)NC7=O)CC6)C5)CC4)cn3)cc2)nn2c(C(=O)N[C@@H]3C[C@@H]3F)cnc12 (stereo partly shown) [Example K480] , what is its reported DC50?
Reply: > 100 nM

Task item: For CNc1cc(Nc2cccn(-c3cc(C(=O)NCCOCCOCCc4ccc5c(c4)n(C)c(=O)n5C4CCC(=O)NC4=O)ccn3)c2=O)nn2c(C(=O)N[C@@H]3C[C@@H]3F)cnc12 (stereo partly shown) [Example K237] , what is its reported DC50?
Reply: > 100 nM

Task item: For CNc1cc(Nc2cccc(N3CCC(CN4CCC(c5ccc(-c6ccc7c(c6)n(C)c(=O)n7C6CCC(=O)NC6=O)cc5)CC4)CC3)c2OC)nn2c(C(=O)N[C@@H]3C[C@@H]3F)cnc12 (stereo partly shown) [Example K622] , what is its reported DC50?
Reply: > 100 nM

====

This section presents molecules with their documented DC50 values.
target: TYK2 (Homo sapiens); test: TYK2 degradation MSD assay in OCI-LY10 cells; type: cell-based; design: endogenous in cells; host or cells: EBV-B cells; settings: 4 to 24 hours incubation, read-out: TYK2 MSD DC50 rating in OCI-LY10

Molecule | Quantity name | Measured
CNc1cc(Nc2cccnc2OCC2CCN(C3CCN(c4ccc5c(c4)n(C)c(=O)n5C4CCC(=O)NC4=O)CC3)CC2)nn2c(C(=O)NC3CC3F)cnc12 (centres unmarked) | DC50 | 1 to 10 nM
CNc1cc(Nc2cccc(CN3CCN(CCc4ccc5c(c4)n(C)c(=O)n5C4CCC(=O)NC4=O)CC3)c2)nn2c(C(=O)NC3CC3)cnc12 (centres unmarked) [Example K612] | DC50 | 10 to 100 nM
CNC(=O)c1cnc(Nc2cc(C(=O)NCCCCc3ccc4c(c3)n(C)c(=O)n4C3CCC(=O)NC3=O)ccn2)cc1Nc1cccc(-c2ncc(F)cn2)c1OC (centres unmarked) | DC50 | > 100 nM
CNc1cc(Nc2cccn(-c3ccc(C(=O)N4CC5(CC(CN6CCN(c7ccc8c(c7)n(C)c(=O)n8C7CCC(=O)NC7=O)CC6)CO5)C4)cn3)c2=O)nn2c(C(=O)N[C@@H]3C[C@@H]3F)cnc12 (some centres unmarked) | DC50 | < 1 nM

Let us examine a further case.
Task item: Any idea what DC50 came out for CNc1cc(Nc2cccc(-c3ccc(CN4CCN(C5CCC(c6ccc(-c7ccc8c(c7)n(C)c(=O)n8C7CCC(=O)NC7=O)cc6)CC5)CC4)cn3)c2)nn2c(C(=O)N[C@@H]3C[C@@H]3F)cnc12 (some centres unmarked) on TYK2 (Homo sapiens)?
Reply: 1 to 10 nM

====

molecular target: TYK2 (Homo sapiens, UniProt P29597); experiment: TYK2 degradation MSD assay in EBV-B cells; format: cell-based; design: endogenous in cells; host or cells: EBV-B cells; details: 4 to 24 hours incubation, read-out: TYK2 MSD DC50 rating in EBV-B
Sequence (P29597 whole entry): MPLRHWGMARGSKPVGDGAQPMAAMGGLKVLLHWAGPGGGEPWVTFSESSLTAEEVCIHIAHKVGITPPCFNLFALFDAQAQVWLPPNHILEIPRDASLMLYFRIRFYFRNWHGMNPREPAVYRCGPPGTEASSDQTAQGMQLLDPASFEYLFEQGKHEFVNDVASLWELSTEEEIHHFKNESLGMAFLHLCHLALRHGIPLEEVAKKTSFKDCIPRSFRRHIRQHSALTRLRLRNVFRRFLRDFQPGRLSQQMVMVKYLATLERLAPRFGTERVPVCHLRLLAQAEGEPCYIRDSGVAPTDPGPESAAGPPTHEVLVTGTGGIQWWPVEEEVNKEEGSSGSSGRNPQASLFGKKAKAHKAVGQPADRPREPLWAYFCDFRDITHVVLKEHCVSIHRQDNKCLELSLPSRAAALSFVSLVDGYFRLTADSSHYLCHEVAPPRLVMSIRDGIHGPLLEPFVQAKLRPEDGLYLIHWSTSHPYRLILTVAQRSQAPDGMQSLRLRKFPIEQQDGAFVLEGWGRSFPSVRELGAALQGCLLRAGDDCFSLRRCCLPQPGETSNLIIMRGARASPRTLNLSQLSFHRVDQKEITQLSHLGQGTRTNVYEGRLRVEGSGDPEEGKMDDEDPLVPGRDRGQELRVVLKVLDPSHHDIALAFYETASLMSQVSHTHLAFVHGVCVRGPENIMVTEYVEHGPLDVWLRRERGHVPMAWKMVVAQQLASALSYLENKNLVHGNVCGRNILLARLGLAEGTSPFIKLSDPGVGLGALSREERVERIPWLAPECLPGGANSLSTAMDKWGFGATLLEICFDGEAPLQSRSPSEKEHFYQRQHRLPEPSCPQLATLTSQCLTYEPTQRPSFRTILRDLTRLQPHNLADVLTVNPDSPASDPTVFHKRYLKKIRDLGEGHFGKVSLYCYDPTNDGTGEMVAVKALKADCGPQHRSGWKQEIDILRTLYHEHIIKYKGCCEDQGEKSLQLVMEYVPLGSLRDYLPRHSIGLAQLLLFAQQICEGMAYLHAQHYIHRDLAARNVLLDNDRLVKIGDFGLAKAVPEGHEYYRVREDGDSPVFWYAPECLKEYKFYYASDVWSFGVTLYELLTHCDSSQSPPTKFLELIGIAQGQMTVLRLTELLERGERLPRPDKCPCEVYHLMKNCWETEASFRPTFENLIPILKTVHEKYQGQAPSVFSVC
This section presents molecules with their documented DC50 values.

Known DC50 results, listed for orientation:
Molecule | DC50
CNC(=O)c1cnc(Nc2ccc(CN3CCC(c4ccc5c(c4)n(C)c(=O)n5C4CCC(=O)NC4=O)CC3)cn2)cc1Nc1cccc(-c2ncc(F)cn2)c1OC (stereo not shown) | < 1 nM
CNC(=O)c1cnc2c(NC)cc(Nc3cccc(-c4ccc(CN5CCN(c6ccc(-c7ccc8c(c7)n(C)c(=O)n8C7CCC(=O)NC7=O)cc6)CC5)cn4)c3OC)nn12 (stereo not shown) | > 100 nM
Cn1c(=O)n(C2CCC(=O)NC2=O)c2cccc(C3CN(C4CCN(Cc5ccc(-c6cccc(Nc7ccc8ncc(C(=O)NC9CC9)n8n7)c6)nc5)CC4)C3)c21 (stereo not shown) | > 100 nM

Task item: For CNc1cc(-c2ccc(C(=O)NCCCCCCCCc3ccc4c(c3)n(C)c(=O)n4C3CCC(=O)NC3=O)cc2)nn2c(C(=O)N[C@@H]3C[C@@H]3F)cnc12 (stereo partly shown) , what is its reported DC50?
Reply: > 100 nM

Task item: For CCNC(=O)c1cnc(Nc2ccc(C(=O)NCCCCc3cccc4c3n(C)c(=O)n4C3CCC(=O)NC3=O)cn2)cc1Nc1cccc(-c2ncc(F)cn2)c1OC (stereo not shown) , what is its reported DC50?
Reply: 10 to 100 nM

====

This section presents molecules with their documented DC50 values.
target: TYK2 (Homo sapiens); assay: TYK2 degradation MSD assay in OCI-LY10 cells; assay type: cell-based; set-up: endogenous in cells; host or cells: EBV-B cells; details: 4 to 24 hours incubation, read-out: TYK2 MSD DC50 rating in OCI-LY10

Known DC50 results, listed for orientation:
Molecule | Quantity name | Measured
CNC(=O)c1cnc(Nc2ccc(CN3CCC(CC#Cc4cccc5c4n(C)c(=O)n5C4CCC(=O)NC4=O)CC3)cn2)cc1Nc1cccc(-c2ncc(F)cn2)c1OC (stereo not shown) | DC50 | > 100 nM
CNc1cc(Nc2cccc(CN3CC4(CCN(c5cccc6c5n(C)c(=O)n6C5CCC(=O)NC5=O)CC4)C3)c2)nn2c(C(=O)NC3CC3)cnc12 (stereo not shown) | DC50 | 1 to 10 nM
CNc1cc(Nc2cnn(CC3CCN(CC4CCN(c5ccc6c(c5)n(C)c(=O)n6C5CCC(=O)NC5=O)CC4)CC3)c2)nn2c(C(=O)N[C@@H]3C[C@@H]3F)cnc12 (mixture of isomers) | DC50 | > 100 nM
CCNC(=O)c1cnc(Nc2cc(C(=O)NCCCCc3cccc4c3n(C)c(=O)n4C3CCC(=O)NC3=O)ccn2)cc1Nc1cccc(-c2ncc(F)cn2)c1OC (stereo not shown) | DC50 | > 100 nM

Task item: For CNc1cc(-c2cnn(C3CN(C(=O)NCCCCCCCCc4cccc5c4n(C)c(=O)n5C4CCC(=O)NC4=O)C3)c2)nn2c(C(=O)N[C@@H]3C[C@@H]3F)cnc12 (stereo partly shown) , what is its reported DC50?
Reply: > 100 nM

Task item: For CNC(=O)c1cnc(Nc2ccc(CN3CCN(C(=O)CCc4ccc5c(c4)n(C)c(=O)n5C4CCC(=O)NC4=O)CC3)cn2)cc1Nc1cccc(-c2ncc(F)cn2)c1OC (stereo not shown) , what is its reported DC50?
Reply: > 100 nM

Task item: For Cc1cc(C)cc(Nc2cc(NCCCCCCc3ccc4c(c3)n(C)c(=O)n4C3CCC(=O)NC3=O)c3ncc(C(=O)N[C@@H]4C[C@@H]4F)n3n2)c1 (stereo partly shown) , what is its reported DC50?
Reply: > 100 nM

Task item: For COc1c(Nc2cc(Nc3ccc(C(=O)NCCCCc4cccc5c4n(C)c(=O)n5C4CCC(=O)NC4=O)cn3)ncc2C(=O)NC2CC2)cccc1-c1ncc(F)cn1 (stereo not shown) , what is its reported DC50?
Reply: > 100 nM

Task item: For Cn1c(=O)n(C2CCC(=O)NC2=O)c2ccc(CCCCCCCCNc3cc(Nc4cccn(-c5ccccn5)c4=O)nn4c(C(=O)N[C@@H]5C[C@@H]5F)cnc34)cc21 (stereo partly shown) , what is its reported DC50?
Reply: > 100 nM

Task item: For CNc1cc(-c2cn(C)c3c(C4CCN(CC5CCN(c6ccc(-c7ccc8c(c7)n(C)c(=O)n8C7CCC(=O)NC7=O)cc6)CC5)CC4)cccc23)nn2c(C(=O)N[C@@H]3C[C@@H]3F)cnc12 (mixture of isomers) , what is its reported DC50?
Reply: 1 to 10 nM

Task item: For CNc1cc(Nc2cccn(-c3ccc(CN4CCN(CC5CCN(c6ccc(-c7ccc8c(c7)n(C)c(=O)n8C7CCC(=O)NC7=O)cc6)CC5)CC4)cn3)c2=O)nn2c(C(=O)N[C@@H]3C[C@@H]3F)cnc12 (stereo partly shown) , what is its reported DC50?
Reply: < 1 nM

Task item: For CNc1cc(Nc2cccn(C3CCN(C(=O)NCCCCCCCCCCc4ccc5c(c4)n(C)c(=O)n5C4CCC(=O)NC4=O)CC3)c2=O)nn2c(C(=O)N[C@@H]3C[C@@H]3F)cnc12 (stereo partly shown) , what is its reported DC50?
Reply: > 100 nM

Task item: For CNc1cc(C2CCCN(C(=O)CCCCCCCc3ccc4c(c3)n(C)c(=O)n4C3CCC(=O)NC3=O)C2)nn2c(C(=O)N[C@@H]3C[C@@H]3F)cnc12 (stereo partly shown) , what is its reported DC50?
Reply: > 100 nM
